- EXPERIMENT: NCI Yeast Anticancer Drug Screen. Data for the rad50 strain (AID 155);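 note: 0% = growth of vehicle-only cultures of the same strain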
- CONDITION DETAILS: S. cerevisiae rad50 strain growth inhibition; at 50.0 µM; stronger effect = higher value
About 79,000 compounds went through this panel and 15% of them were active in at least one assay; those are over-represented in the sample as a whole.
RESULT TYPE: growth inhibition (%)
Provide only the numeric value, understood in %.

Illustrative cases are given below, each with its answer.
# MOLECULE, RESULT TYPE, RESULT
rows = [
    ("CC(=O)CCC(CC(=O)O)C(C)C (stereo unspecified)", "growth inhibition", 12),
    ("CC(CNC(N)=O)NC(N)=O (stereo unspecified)", "growth inhibition", -23.8),
    ("O=C(O)c1c(CC(Cc2ccc3c(c2)CCCC3)C(=O)O)ccc2c1CCCC2 (stereo unspecified)", "growth inhibition", 46.3),
    ("Cc1cn(C2CC(OS(C)(=O)=O)C(COC(c3ccccc3)(c3ccccc3)c3ccccc3)O2)c(=O)[nH]c1=O (stereo unspecified)", "growth inhibition", 30.9),
    ("O=C(COc1ccccc1Cl)N1N=C(c2ccc(Cl)cc2)CC1(O)c1ccccc1 (stereo unspecified)", "growth inhibition", -17.9),
]

Q: What value of measured growth inhibition is listed for O=C(Nc1ccc(Cc2ccc(NC(=O)Nc3nc4ccccc4s3)cc2)cc1)Nc1nc2ccccc2s1 ?
Result: -5.15

Q: Likewise for Cc1cn(C(=O)NC23CC4CC(CC(C4)C2)C3)c(=O)[nH]c1=O ?
Result: 14.8

Q: Likewise for CC(=O)Nc1cc(C)cc(Br)c1 ?
Result: -6.85

Q: Likewise for CN=S(=O)(OCCCCOS(=O)(=NC)c1ccc(C)cc1)c1ccc(C)cc1 (stereo unspecified) ?
Result: 10.6

Q: Likewise for CC(=O)NC(CCCCN(Cc1ccccc1)C(=O)N(C)N=O)C(=O)NCc1ccccc1 (stereo unspecified) ?
Result: 0.3

###

- EXPERIMENT: NCI Yeast Anticancer Drug Screen. Data for the mec2-1 strain (AID 157)
- CONDITION DETAILS: S. cerevisiae mec2-1 strain, at 50.0 µM, stronger effect = higher value
About 79,000 compounds went through this panel and 15% of them were active in at least one assay; those are over-represented in the sample as a whole.
RESULT TYPE: growth inhibition (%)
Provide only the numeric value, understood in %.

Illustrative cases are given below, each with its answer.
# COMPOUND, RESULT UNIT, RESULT
data = [
    ("C/C(CC(=O)Nc1ccccc1[N+](=O)[O-])=N\\NC(N)=O", "%", -15.8),
    ("CN(C)B(B(N(C)C)N(C)C)N(C)C", "%", 17.4),
    ("COc1ccc2c(c1)CCc1nc(N)nc(N)c1-2", "%", 4.1),
]

Q: What value of measured growth inhibition is listed for CCCOC1(C)Oc2cc3c(cc2C(c2cc(OC)c(OC)c(OC)c2)C1C)OCO3 (centres undefined) ?
Result: 2.7

###

List of growth inhibition values.
- EXPERIMENT: NCI Yeast Anticancer Drug Screen. Data for the cln2 rad14 strain (AID 165);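 note: 0% = growth equal to vehicle treated cultures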
- CONDITION DETAILS: S. cerevisiae cln2 rad14 strain, at 50.0 µM, stronger effect = higher value
- Protocol: Growth inhibition of yeast strains with defined genetic alterations is measured as a screen for potential anti-cancer activity. Selected strains with alterations in DNA damage repair or cell cycle control were exposed to compounds and growth inhibition was measured relative to vehicle treated controls. The strain used in this assay is cln2 rad14
The panel holds about 79,000 compounds, 15% with a hit somewhere; the sample as a whole holds those more often.
Provide only the numeric value, understood in %.

Illustrative cases are given below, each with its answer.
# MOLECULE, growth inhibition [%]
records = [
    ("O=C(NCCNCCCNC(=O)c1cc(-c2ccccc2)nc2ccccc12)c1cccc(O)c1O", 22.6),
    ("NC(=O)c1nnn2c1nc(N)c1cc(Cl)ccc12", -18.4),
    ("O=C1c2ccccc2C(=O)c2c(Cl)ccc(O)c21", 0.1),
]

Q: What value of measured growth inhibition is listed for Cc1cc(O)c(C(c2c(O)cc(C)c(Cl)c2C)C(Cl)(Cl)Cl)c(C)c1Cl ?
Result: 39.6

Q: Likewise for COc1c2occc2c(Br)c2ccc(=O)oc12 ?
Result: 7.45

Q: Likewise for Clc1ccc(CNc2ncnc3nc(Cl)[nH]c23)cc1 ?
Result: -41.2

Q: Likewise for CCN1OCC(C)(C(=O)OC)C1C (configuration not stated) ?
Result: -31
